# TESTED_ON: HGFR (Homo sapiens)
# Construct: purchased Upstate 14-526
# ASSAY_TEXT: HGFR continuous-coupled spectrophotometric assay (tyrosine kinase activity on Met-2 substrate peptide)
# Type: biochemical
# CONDITION: HGFR 50 nM, Met-2 peptide 0.5 mM, ATP 300 μM, 37° C., absorbance 340 nm; read-out: Ki
pKi: −log10 of the molar value.
PARAMETER: pKi

Before answering, review these 4 worked examples.
CC(O)Cn1cc(-c2cnc3nnn(Cc4ccc5ncccc5c4)c3n2)cn1 (stereo not drawn) [Example 59]	7.96
OC[C@H]1C[C@@H]1CNc1cnc2nnn(Cc3ccc4ncccc4c3)c2n1 [Example 129]	7.89
COC(=O)c1cnc2nnn(Cc3ccc4ncccc4c3)c2n1 [Example 196]	6.76
c1cnc2ccc(Cn3nnc4ncc(-c5cnn(C6CNC6)c5)nc43)cc2c1 [Example 1]	8.10

[P] CN(C)C1CCN(c2cnc3nnn(Cc4ccc5ncccc5c4)c3n2)CC1 [Example 27]
[Q] NC(=O)C1(N)CCN(c2cnc3nnn(Cc4ccc5ncccc5c4)c3n2)C1 (stereo not drawn) [Example 189]
Task item: Compare P and Q by numeric pKi and name the larger one. Reply briefly: the label of your chosen item.
Reply: P

[a] c1cnc2ccc(Cn3nnc4ncc(OC5CCOCC5)nc43)cc2c1 [Example 142]
[b] CNC(=O)c1ccc(-c2cnc3nnn(Cc4ccc5ncccc5c4)c3n2)cc1 [Example 19]
Task item: Smaller pKi value? Options are a and b Reply briefly: the label of your chosen item.
Reply: a

* * *

# TESTED_ON: HGFR (Homo sapiens, UniProt P08581)
# Construct: purchased Upstate 14-526
# Sequence (P08581 974-1390 limits assumed): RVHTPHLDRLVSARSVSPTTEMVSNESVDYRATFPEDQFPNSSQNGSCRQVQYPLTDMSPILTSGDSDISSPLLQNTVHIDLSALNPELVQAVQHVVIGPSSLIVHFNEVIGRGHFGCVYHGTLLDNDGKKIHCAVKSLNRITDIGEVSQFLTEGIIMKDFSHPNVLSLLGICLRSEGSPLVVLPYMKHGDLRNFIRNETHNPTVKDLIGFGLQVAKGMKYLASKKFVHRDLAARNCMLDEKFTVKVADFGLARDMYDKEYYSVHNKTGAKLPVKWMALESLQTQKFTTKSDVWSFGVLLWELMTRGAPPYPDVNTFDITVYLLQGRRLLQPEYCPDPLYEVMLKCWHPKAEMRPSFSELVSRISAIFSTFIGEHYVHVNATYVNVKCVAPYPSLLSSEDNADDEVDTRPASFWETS
# ASSAY_TEXT: HGFR continuous-coupled spectrophotometric assay (tyrosine kinase activity on Met-2 substrate peptide)
# Format: biochemical
# CONDITION: HGFR 50 nM, Met-2 peptide 0.5 mM, ATP 300 μM, 37° C., absorbance 340 nm; read-out: Ki
PARAMETER: Ki (nM)

[I] OC1CCN(c2cnc3nnn(Cc4ccc5ncccc5c4)c3n2)CC1
[II] C[C@@H](O)CNc1cnc2nnn(Cc3ccc4ncccc4c3)c2n1
[III] Fc1cc2ncccc2cc1Cn1nnc2ncc(N3CC[C@@H](N4CCOCC4)C3)nc21
Task item: Sort the entries above numerically by Ki, high end first. Field: ranking. Enter the labels in the order requested.
Reply: II, I, III
(II: 40 nM, I: 15 nM, III: 10 nM)

[1] CC(C)(O)CNc1cnc2nnn(Cc3ccc4ncccc4c3)c2n1
[2] CC(O)CNc1cnc2nnn(Cc3ccc4ncccc4c3)c2n1 (stereo not shown) [Example 113]
[3] CC(C)(CNc1cnc2nnn(Cc3ccc4ncccc4c3)c2n1)NC(=O)OC(C)(C)C
[4] C[C@H](O)CNc1cnc2nnn(Cc3cc4cccnc4cc3F)c2n1
[5] CS(=O)(=O)C1CCN(c2cnc3nnn(Cc4ccc5ncccc5c4)c3n2)C1 (stereo not shown)
Task item: Endpoint returns the given compounds ordered by ascending Ki. Field: ranking. Enter the labels in the order requested.
Reply: 4, 2, 1, 5, 3

[1] CC(=O)NCCNc1cnc2nnn(Cc3ccc4ncccc4c3)c2n1
[2] CC(O)CNc1cnc2nnn(Cc3ccc4ncccc4c3)c2n1 (stereo not shown) [Example 174]
Task item: Compare 1 and 2 by numeric Ki and name the larger one. Reply briefly: the label of your chosen item.
Reply: 1

[1] c1cnc2ccc(Cn3nnc4ncc(NC5CCOC5)nc43)cc2c1 (stereo not shown) [Example 123]
[2] CCCCOc1cnc2nnn(Cc3ccc4ncccc4c3)c2n1
Task item: Compare 1 and 2 by numeric Ki and name the larger one. Reply briefly: the label of your chosen item.
Reply: 2
(2: 14 nM, 1: 8 nM)

[A] CN(CCO)c1cnc2nnn(Cc3ccc4ncccc4c3)c2n1
[B] O=C(O)c1ccc(-c2cnc3nnn(Cc4ccc5ncccc5c4)c3n2)cc1Cl
[C] COCCn1cc(-c2cnc3nnn(Cc4ccc5ncccc5c4)c3n2)cn1
Task item: Endpoint returns the given compounds ordered by ascending Ki. Field: ranking. Enter the labels in the order requested.
Reply: C, B, A

[A] CC(=O)N[C@H]1CCN(c2cnc3nnn(Cc4ccc5ncccc5c4)c3n2)C1
[B] O=C(c1ccc(-c2cnc3nnn(Cc4ccc5ncccc5c4)c3n2)cc1)N1CCOCC1
Task item: Smaller Ki value? Options are A and B Reply briefly: the label of your chosen item.
Reply: A
(A: 31 nM, B: 46 nM)

[a] CC1C(=O)NCCN1c1cnc2nnn(Cc3ccc4ncccc4c3)c2n1 (stereo not shown)
[b] CC(c1ccc2c(c1)OCCO2)n1nnc2ncc(-c3cnn(C)c3)nc21 (stereo not shown) [Example 56]
Task item: Smaller Ki value? Options are a and b Reply briefly: the label of your chosen item.
Reply: a
(a: 23 nM, b: 37 nM)

* * *

# TESTED_ON: HGFR (Homo sapiens, UniProt P08581)
# Construct: purchased Upstate 14-526
# ASSAY_TEXT: HGFR continuous-coupled spectrophotometric assay (tyrosine kinase activity on Met-2 substrate peptide)
# Type: biochemical
# CONDITION: HGFR 50 nM, Met-2 peptide 0.5 mM, ATP 300 μM, 37° C., absorbance 340 nm; read-out: Ki
PARAMETER: Ki (nM)

Before answering, review these 6 worked examples.
c1cnc2ccc(Cn3nnc4ncc(NCc5cc(C6CC6)[nH]n5)nc43)cc2c1 [Example 124]	35
NC(=O)C1CCN(c2cnc3nnn(Cc4ccc5ncccc5c4)c3n2)C1 (stereo not drawn) [Example 176]	23
CC(O)c1cnc2nnn(Cc3ccc4ncccc4c3)c2n1 (stereo not drawn) [Example 184]	231
CC1(CO)CCCN(c2cnc3nnn(Cc4ccc5ncccc5c4)c3n2)C1 (stereo not drawn) [Example 90]	39
CN(C)[C@H]1CCN(c2cnc3nnn(Cc4ccc5ncccc5c4)c3n2)C1 [Example 29]	24
COCCOc1cnc2nnn(Cc3ccc4ncccc4c3)c2n1 [Example 169]	26

[P] O=C(NC1CCNCC1)c1ccc(-c2cnc3nnn(Cc4ccc5ncccc5c4)c3n2)cc1 [Example 10]
[Q] Fc1cc2ncccc2cc1Cn1nnc2ncc(NC3CCOC3)nc21 (stereo not drawn) [Example 152]
[R] CC(C)(C)OC(=O)NC[C@H]1CCN(c2cnc3nnn(Cc4ccc5ncccc5c4)c3n2)C1 [Example 133]
Task item: Endpoint returns the given compounds ordered by ascending Ki. Field: ranking. Enter the labels in the order requested.
Reply: Q, P, R
(Q: 1 nM, P: 4 nM, R: 51 nM)

* * *

# TESTED_ON: HGFR (Homo sapiens)
# Construct: purchased Upstate 14-526
# ASSAY_TEXT: HGFR continuous-coupled spectrophotometric assay (tyrosine kinase activity on Met-2 substrate peptide)
# Format: biochemical
# CONDITION: HGFR 50 nM, Met-2 peptide 0.5 mM, ATP 300 μM, 37° C., absorbance 340 nm; read-out: Ki
pKi: −log10 of the molar value. Counter-ions that a name gives are not always drawn.
PARAMETER: pKi

Before answering, review these 6 worked examples.
N#CC1CCN(c2cnc3nnn(Cc4ccc5ncccc5c4)c3n2)CC1 [Example 86]	7.68
O=c1[nH]cccc1CNc1cnc2nnn(Cc3ccc4ncccc4c3)c2n1 [Example 115]	7.92
O=C(O)c1cnc2nnn(Cc3ccc4ncccc4c3)c2n1 [Example 194]	6.09
CC(C)(C(N)=O)n1cc(-c2cnc3nnn(Cc4ccc5ncccc5c4)c3n2)cn1 [Example 67]	7.39
CC(c1ccc2c(c1)OCCO2)n1nnc2ncc(Br)nc21 (centres unmarked) [Example 54]	7.38
O[C@@H]1C[C@H]2CN(c3cnc4nnn(Cc5ccc6ncccc6c5)c4n3)CCN2C1 [Example 105]	7.54

[I] COc1ccc(-c2cnc3nnn(Cc4ccc5ncccc5c4)c3n2)cc1 [Example 21]
[II] NC(=O)c1cnc2nnn(Cc3ccc4ncccc4c3)c2n1 [Example 162]
[III] NC(=O)[C@H]1CCCN1c1cnc2nnn(Cc3ccc4ncccc4c3)c2n1 [Example 186]
[IV] OC[C@@H]1CC=CC[C@@H]1Nc1cnc2nnn(Cc3ccc4ncccc4c3)c2n1 [Example 119]
[V] C[C@H](c1ccc2c(c1)OCCO2)n1nnc2ncc(-c3cnn(C)c3)nc21 [Example 185]
Task item: Put the items in sequence by pKi, from largest down. Field: ranking. Enter the labels in the order requested.
Reply: I, II, IV, V, III
(I: 8.40, II: 7.77, IV: 7.52, V: 7.01, III: 6.25)

[a] CN(C)C(C(N)=O)C1CCN(c2cnc3nnn(Cc4ccc5ncccc5c4)c3n2)CC1 (centres unmarked) [Example 109]
[b] CNc1cnc2nnn(Cc3ccc4ncccc4c3)c2n1 [Example 57]
[c] C[C@@H](CO)Nc1cnc2nnn(Cc3ccc4ncccc4c3)c2n1 [Example 118]
Task item: Endpoint returns the given molecules ordered by ascending pKi. Field: ranking. Enter the labels in the order requested.
Reply: c, a, b

[I] Cc1n[nH]c(C)c1-c1cnc2nnn(Cc3ccc4ncccc4c3)c2n1 [Example 63]
[II] CC(C)(C)OC(=O)N[C@@H]1CCCN(c2cnc3nnn(Cc4ccc5ncccc5c4)c3n2)C1 [Example 202]
[III] OC[C@@H]1C[C@H]1CNc1cnc2nnn(Cc3ccc4ncccc4c3)c2n1 [Example 127]
[IV] Cn1nc(C(F)(F)F)cc1-c1cnc2nnn(Cc3ccc4ncccc4c3)c2n1 [Example 64]
[V] CNC(=O)c1cnc2nnn(Cc3ccc4ncccc4c3)c2n1 [Example 195]
Task item: Put the items in sequence by pKi, from largest down. Field: ranking. Enter the labels in the order requested.
Reply: IV, I, III, V, II
(IV: 8.40, I: 7.66, III: 7.40, V: 6.93, II: 6.21)

[P] CCc1noc(CN(C)c2cnc3nnn(Cc4ccc5ncccc5c4)c3n2)n1 [Example 91]
[Q] CCN1CCN(c2cnc3nnn(Cc4ccc5ncccc5c4)c3n2)C(C)C1=O (centres unmarked) [Example 82]
Task item: Smaller pKi value? Options are P and Q Reply briefly: the label of your chosen item.
Reply: P
(P: 7.60, Q: 7.82)

[1] c1cnc2ccc(Cn3nnc4ncc(NCc5cnn6cccnc56)nc43)cc2c1 [Example 122]
[2] CNC(=O)CCNc1cnc2nnn(Cc3ccc4ncccc4c3)c2n1 [Example 125]
Task item: Smaller pKi value? Options are 1 and 2 Reply briefly: the label of your chosen item.
Reply: 1
(1: 7.60, 2: 7.82)

[A] COCCNc1cnc2nnn(Cc3ccc4ncccc4c3)c2n1 [Example 71]
[B] CC(C)(O)c1cnc2nnn(Cc3ccc4ncccc4c3)c2n1 [Example 182]
[C] CC(CO)Nc1cnc2nnn(Cc3ccc4ncccc4c3)c2n1 (stereo in doubt) [Example 120]
Task item: Put the items in sequence by pKi, from largest down. Field: ranking. Enter the labels in the order requested.
Reply: A, C, B

[I] CN(Cc1noc(C2CC2)n1)c1cnc2nnn(Cc3ccc4ncccc4c3)c2n1 [Example 95]
[II] O=C1CN(c2cnc3nnn(Cc4ccc5ncccc5c4)c3n2)CCN1 [Example 83]
[III] N[C@@H]1CCCN(c2cnc3nnn(Cc4ccc5ncccc5c4)c3n2)C1 [Example 31, dihydrochloride]
Task item: Put the items in sequence by pKi, from largest down. Field: ranking. Enter the labels in the order requested.
Reply: I, II, III
